System: waterhemp
Test details: Test C pre-/postemergence herbicide test
Type: in vivo, Amaranthus rudis
Condition summary: Preemergence, 62 g ai/ha; scale 0 to 100 (0 no effect, 100 complete control)
Parameter Waterhemp plant response rating: see the listing below.
# respond with the number and nothing more

# example entries with known answers
* CN1CC(c2ccc(C(F)(F)F)cc2)C(C(=O)Nc2ccccc2F)C1=O (centres unmarked) [Compound 304] | 80
* O=C1NCC(c2ccc(C(F)(F)F)nc2)C1C(=O)Nc1cccc(F)c1F (racemic) [Compound 263] | 80

(Q) Output measured Waterhemp plant response rating for this item: O=C1NCC(c2cccc(C(F)F)c2)C1C(=O)Nc1cccc(F)c1F (racemic) [Compound 211]
(A) 75

(Q) Output measured Waterhemp plant response rating for this item: O=C1NCC(c2ccc(C(F)(F)F)c(F)c2)C1C(=O)Nc1ccccc1F (racemic) [Compound 246]
(A) 98

(Q) Recall and state the measured Waterhemp plant response rating for O=C1NCC(c2ccc(C(F)(F)F)cc2)C1C(=O)Nc1ccccc1Cl (centres unmarked) [Compound 233] .
(A) 80

* * *

System: ducksalad
Test details: Test B flooded paddy test
Format: in vivo, Heteranthera limosa
Condition summary: 1000 g ai/ha, Flood; scale of 0 to 100 where 0 is no effect and 100 is complete control
Under this convention, met denotes Plant response rating, Ducksalad strictly below 80 and not met denotes Plant response rating, Ducksalad at or above 80.

• COc1ccc(C2CNC(=O)C2C(=O)Nc2ccccc2C(F)(F)F)cc1C(F)(F)F (stereo not shown) = not met

(Q) Would you kindly verify if Plant response rating, Ducksalad of COc1ccc(C2CNC(=O)C2C(=O)Nc2ccccc2F)cc1F (racemic) is strictly less than 80?
(A) met

(Q) Just wondering, is Plant response rating, Ducksalad of O=C1NCC(c2ccc(-c3ccccc3C(F)(F)F)cc2)C1C(=O)Nc1cccc(F)c1F (stereo not shown) below 80?
(A) met

(Q) Input O=C1NCC(c2ccc(Cl)c(C(F)(F)F)c2)C1C(=O)Nc1cccc(F)c1F (racemic) ; condition: Plant response rating, Ducksalad strictly below 80. Does it hold?
(A) not met

(Q) I wonder whether O=C1NCC(c2ccc(C(F)(F)F)nc2)C1C(=O)Nc1cccc(F)c1F (racemic) has Plant response rating, Ducksalad below 80. Can you tell?
(A) not met

(Q) Bench note: check whether O=C1NCC(c2cccc(C(F)(F)F)c2)C1C(=O)Nc1cccc(Cl)c1F (stereo not shown) shows Plant response rating, Ducksalad below 80
(A) not met

(Q) Regarding O=C1NCC(c2ccc(C(F)(F)F)c(Cl)c2)C1C(=O)Nc1ccccc1C(F)(F)F (racemic) , kindly confirm whether its Plant response rating, Ducksalad is beneath 80.
(A) not met

(Q) For O=C1NCC(c2cccc(C(F)(F)F)c2)C1C(=O)Nc1cccc(F)c1F (stereo not shown) , is the recorded Plant response rating, Ducksalad below the cut-off of 80?
(A) not met

(Q) Strictly below 80: is that where Plant response rating, Ducksalad of O=C1NCC(c2ccc(C(F)(F)F)cc2F)C1C(=O)Nc1ccccc1F (racemic) sits?
(A) not met

* * *

The following compounds are listed with their measured Plant response rating, Ragweed values.
Tested on: ragweed
Test details: Test A pre-/postemergence herbicide test
Format: in vivo, Ambrosia elatior
Condition summary: 125 g ai/ha; visual rating, 0 to 100 scale, 0 no effect, 100 complete control; approximately 10 days; preemergence

Known results for compounds:
• O=C1NCC(c2ccc(Cl)cc2)C1C(=O)Nc1ccccc1F (stereo not shown) = 0
• O=C1NCC(c2cccc(OC(F)(F)C(F)F)c2)C1C(=O)Nc1ccccc1F (racemic) = 70
• O=C1NCC(c2cccc(C(F)(F)F)c2)C1C(=O)Nc1nc(C(F)(F)F)co1 (racemic) = 0

Attention now shifts to the item below.
(Q) Please indicate recorded Plant response rating, Ragweed of O=C1NCC(c2cccc(C3CC3)c2)C1C(=O)Nc1cccc(F)c1F (racemic) measured with ragweed.
(A) 0
